Test system: MDA-MB-468 breast
Test method notes: NCI-60 one-dose screen, 48 h
Reported conditions: 10 µM unless noted
About 83,000 compounds went through this panel and 20% of them were active in at least one assay; those are over-represented in the sample as a whole. Active and inactive are the calls of the source. The calls were made as follows: active = growth percent below 10; inactive = the rest.
Outcome (select one): active, inactive

Test call, this molecule: CCCN1C2CCC1/C(=C\c1ccc(OC)cc1)C(=O)/C2=C/c1ccc(OC)cc1
inactive

* * *

System: MDA-MB-468 breast
Test method notes: NCI-60 one-dose screen, 48 h
Reported conditions: 10 µM unless noted
This is part of a sample that, as a whole, favours compounds with a hit. Of some 83,000 tested, about 20% had one in any assay. Active and inactive are the calls of the source. Rule for the calls: active = growth percent below 10; inactive = the rest.
Outcome (select one): active, inactive

// known answers, use as guide
compound="Oc1c(C(Nc2ccccc2Br)c2ccccc2)ccc2cccnc12 (stereo not given)" category_label=active
compound=C=C1C(=O)O[C@H]2[C@H]1CC/C(COC(=O)c1cc3cc(Cl)ccc3[nH]1)=C\CC[C@@]1(C)O[C@@H]21 category_label=active
compound=C/C(=N\N1CC(=O)NC1=O)c1ccc([N+](=O)[O-])o1 category_label=inactive
compound=CC(C)[C@H]1COC(=O)N1[C@@H]1C(=O)N([C@@H](CCC(=O)N2CCN(C3CCCC3)CC2)C(=O)N[C@@H]2CCCc3ccccc32)[C@@H]1/C=C/c1cccc(Cl)c1 category_label=active
compound=CN(C)c1ccc(/C=N/NC(=O)CSc2nc3sc4c(c3c(=O)n2-c2ccccc2)CCCCC4)cc1 category_label=inactive
compound=CCN(CC)CCCNc1nccc2ccc(Cl)cc12 category_label=inactive

Test call, this compound: CCC1OC(OC)C=CC1=O (stereo not given)
inactive

Test call, this compound: COC(=O)[C@H]1CCCN1C[C@@H](O)CN1C(=O)/C(=C\c2cc(OC)c(OC)c(OC)c2)c2ccccc21
inactive
